The reported measurements were obtained from paper PMC9867442.

# Test system: Escherichia coli
# Assay Remarks: Antibacterial well-diffusion method
# Format: cell-based
# Settings: 0.1 mL of compound in DMSO, 48 h, 37 °C
Endpoint: Zone of Growth Inhibition
A bare number is not enough; add the unit after it.

Below are 3 compounds. Give each one its Zone of Growth Inhibition.
1. CCc1nccn1Cc1c[nH]c2ccccc12
2. CN(C)Cc1c[nH]c2ccccc12 [Compound 1, gramine, reference compound]
3. c1ccc2c(Cn3ccnc3)c[nH]c2c1

*A*
1: 3.8 mm; 2: 0 mm; 3: 4 mm

Hi team, please reply with Zone of Growth Inhibition for each item in this list.
1. c1ccc2c(c1)ncn2Cc1c[nH]c2ccccc12
2. Cc1nccn1Cc1c[nH]c2ccccc12
3. CC(C)c1nccn1Cc1c[nH]c2ccccc12
4. CCc1nc(C)cn1Cc1c[nH]c2ccccc12
5. S=c1oc2ccccc2n1Cc1c[nH]c2ccccc12
6. S=c1sc2ccccc2n1Cc1c[nH]c2ccccc12
7. Clc1ncn(Cc2c[nH]c3ccccc23)c1Cl

*A*
["3 mm", "1 mm", "3 mm", "3.5 mm", "2.7 mm", "1 mm", "4.3 mm"]

* * *

# Tested on: Coniophora puteana (Cp)
# Assay Remarks: Antifungal agar-plate method
# Assay type: cell-based
# Settings: Coniophora puteana, concentration 0.0001%, read-out: Antifungal activity (inhibition of mycelial growth)
Endpoint: inhibition of growth at 0.0001 %

Use these answered entries as a reference point.
Compound	inhibition of growth at 0.0001 %
CCc1nc(C)cn1Cc1c[nH]c2ccccc12	40%
c1ccc2c(Cn3ccnc3)c[nH]c2c1	0%
Clc1ncn(Cc2c[nH]c3ccccc23)c1Cl	0%
CN(C)Cc1c[nH]c2ccccc12 [Compound 1, gramine, reference compound]	41%
c1ccc2c(c1)ncn2Cc1c[nH]c2ccccc12	0%

State recorded inhibition of growth at 0.0001 % for all listed compounds.
1. CC(C)c1nccn1Cc1c[nH]c2ccccc12
2. CCc1nccn1Cc1c[nH]c2ccccc12

*A*
13%
13%

# batch size: 3; output inhibition of growth at 0.0001 % per entry
1. S=c1oc2ccccc2n1Cc1c[nH]c2ccccc12
2. Cc1nccn1Cc1c[nH]c2ccccc12
3. S=c1sc2ccccc2n1Cc1c[nH]c2ccccc12

*A*
0%
0%
0%

* * *

# Tested on: Coriolus versicolor (Cv)
# Assay Remarks: Antifungal agar-plate method
# Type: cell-based
# Settings: Trametes versicolor, concentration 0.001%, read-out: Antifungal activity (inhibition of mycelial growth)
Please provide measured inhibition of growth at 0.001 % for the entries that follow.
Numbers only, in %.

Look over these answered cases.
Compound	inhibition of growth at 0.001 % (%)
Cc1nccn1Cc1c[nH]c2ccccc12 [Compound 3]	1
CCc1nccn1Cc1c[nH]c2ccccc12 [Compound 4]	13
CCc1nc(C)cn1Cc1c[nH]c2ccccc12 [Compound 6]	19

Okay, here is my list. What is inhibition of growth at 0.001 % for each of these?
1. S=c1oc2ccccc2n1Cc1c[nH]c2ccccc12 [Compound 11]
2. Clc1ncn(Cc2c[nH]c3ccccc23)c1Cl [Compound 7]
3. c1ccc2c(c1)ncn2Cc1c[nH]c2ccccc12 [Compound 9]
4. S=c1sc2ccccc2n1Cc1c[nH]c2ccccc12 [Compound 10]
5. CC(C)c1nccn1Cc1c[nH]c2ccccc12 [Compound 5]
6. c1ccc2c(Cn3ccnc3)c[nH]c2c1 [Compound 2]
7. CN(C)Cc1c[nH]c2ccccc12 [Compound 1, gramine, reference compound]

*A*
2
23
6
20
12
19
22

* * *

# Tested on: Coriolus versicolor (Cv)
# Assay Remarks: Antifungal agar-plate method
# Format: cell-based
# Settings: Trametes versicolor, concentration 0.01%, read-out: Antifungal activity (inhibition of mycelial growth)
Kind request: treat 40% as inclusive, so inhibition of growth at 0.01 % at 40% or higher is label 1, anything lower is label 0.

Would you please look over these solved cases?
Molecule	Class Label
c1ccc2c(Cn3ccnc3)c[nH]c2c1 [Compound 2]	label 0
CN(C)Cc1c[nH]c2ccccc12 [Compound 1, gramine, reference compound]	label 0
c1ccc2c(c1)ncn2Cc1c[nH]c2ccccc12 [Compound 9]	label 1
CC(C)c1nccn1Cc1c[nH]c2ccccc12 [Compound 5]	label 1
S=c1oc2ccccc2n1Cc1c[nH]c2ccccc12 [Compound 11]	label 0

*Q* Given Cc1nccn1Cc1c[nH]c2ccccc12 [Compound 3] , state whether its inhibition of growth at 0.01 % is at least 40%.
*A* label 0

*Q* API: above_or_equal(metric=inhibition of growth at 0.01 %, cutoff=40%) for item Clc1ncn(Cc2c[nH]c3ccccc23)c1Cl [Compound 7]
*A* label 1

*Q* Is inhibition of growth at 0.01 % for CCc1nc(C)cn1Cc1c[nH]c2ccccc12 [Compound 6] at or above 40%?
*A* label 1

*Q* hey, is inhibition of growth at 0.01 % for this one >= 40%? CCc1nccn1Cc1c[nH]c2ccccc12 [Compound 4]
*A* label 1

*Q* Confirm if inhibition of growth at 0.01 % reported for the molecule S=c1sc2ccccc2n1Cc1c[nH]c2ccccc12 [Compound 10] is 40% or above.
*A* label 1

* * *

Exercise: state measured melting point for each of the compounds provided.

Smiles Str	Obs Value
CCc1nc(C)cn1Cc1c[nH]c2ccccc12	186 to 189 °C

Would you mind giving melting point for every compound in the list below?
1. CC(C)c1nccn1Cc1c[nH]c2ccccc12
2. S=c1sc2ccccc2n1Cc1c[nH]c2ccccc12
3. Cc1nccn1Cc1c[nH]c2ccccc12
4. S=c1oc2ccccc2n1Cc1c[nH]c2ccccc12
5. c1ccc2c(c1)ncn2Cc1c[nH]c2ccccc12

*A*
1: 183 to 185 °C; 2: 187 to 190 °C; 3: 173 to 174 °C; 4: 157 to 159 °C; 5: 214 to 216 °C

*Q* Which melting point is listed for CCc1nccn1Cc1c[nH]c2ccccc12 ?
*A* 183 to 186 °C
